Hey, just so you know, these numbers are from patent US9234000B2.

# TESTED SYSTEM: Human KLK1 (Homo sapiens (Human), UniProt P06870)
# Sequence (P06870 25-262): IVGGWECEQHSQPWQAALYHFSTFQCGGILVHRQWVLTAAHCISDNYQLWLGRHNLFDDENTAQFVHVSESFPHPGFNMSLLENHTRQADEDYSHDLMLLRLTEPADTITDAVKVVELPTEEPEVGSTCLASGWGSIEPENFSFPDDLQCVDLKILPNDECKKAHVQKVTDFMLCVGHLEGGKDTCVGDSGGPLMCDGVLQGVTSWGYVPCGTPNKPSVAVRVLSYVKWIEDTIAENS
# PROCEDURE DETAILS: Determination of the IC50 for KLK1
# Format: biochemical
# APPLIED CONDITIONS: Human KLK1, 37° C., substrate H-DVal-Leu-Arg-AFC; Table 13
pIC50: −log10 of the molar value.
REPORTED METRIC: pIC50

{"SMILES STRUCTURE": "CCOc1ccc(C[C@@H](NC(=O)c2ccc(Cl)cc2)C(=O)N[C@@H](Cc2cccnc2)C(=O)NCc2ccc(CN)cc2)cc1", "pIC50": "< 5.00"}
{"SMILES STRUCTURE": "CCOc1ccc(C[C@@H](NC(=O)c2ccc(C)cc2)C(=O)N[C@@H](Cc2cccnc2)C(=O)NCc2ccc(CN)cc2)cc1", "pIC50": "< 5.00"}
{"SMILES STRUCTURE": "CCOc1ccc(C[C@@H](NS(=O)(=O)Cc2ccccc2)C(=O)N[C@@H](Cc2ccccc2)C(=O)NCc2ccc(CN)cc2)cc1", "pIC50": 5.54}
{"SMILES STRUCTURE": "CCOc1ccc(C[C@@H](NC(=O)c2ccno2)C(=O)N[C@@H](Cc2cccnc2)C(=O)NCc2ccc(CN)cc2)cc1", "pIC50": "< 5.00"}
{"SMILES STRUCTURE": "CCOc1ccc(C[C@@H](NC(=O)c2ccccn2)C(=O)N[C@@H](Cc2ccccc2)C(=O)NCc2ccc(CN)c(Cl)c2)cc1", "pIC50": "< 5.00"}

Continue with the molecule presented below.
*Q* If you can, please state the reported pIC50 value of CCOc1ccc(C[C@@H](NC(=O)c2cc(C)nn2C)C(=O)N[C@@H](Cc2ccccc2)C(=O)NCc2ccc(CN)cc2)cc1 .
*A* < 5.00

====

# TESTED SYSTEM: Human plasma kallikrein (Homo sapiens (Human))
# PROCEDURE DETAILS: Determination of the IC50 for plasma kallikrein
# Assay type: biochemical
# APPLIED CONDITIONS: 37° C., substrate H-DPro-Phe-Arg-AFC, read-out: IC50 (human PKal)
REPORTED METRIC: IC50 (nM)

{"SMILES STRUCTURE": "CCOc1ccc(C[C@@H](NC(=O)c2cc3ccccc3s2)C(=O)N[C@@H](Cc2ccccc2)C(=O)NCc2ccc(CN)cc2)cc1", "OBSERVED VALUE": 254}
{"SMILES STRUCTURE": "CCOc1ccc(C[C@@H](NC(=O)c2ccc(C)nc2)C(=O)N[C@@H](Cc2ccccc2)C(=O)NCc2ccc(CN)cc2)cc1", "OBSERVED VALUE": 159}
{"SMILES STRUCTURE": "CCOc1ccc(C[C@@H](NC(=O)c2cc(C)nc(Cl)c2)C(=O)N[C@@H](Cc2ccccc2)C(=O)NCc2ccc(CN)cc2)cc1", "OBSERVED VALUE": 598}
{"SMILES STRUCTURE": "COc1ccc(C[C@@H](NC(=O)c2ccccc2)C(=O)N[C@@H](Cc2ccccc2)C(=O)NCc2ccc(CN)cc2)cc1", "OBSERVED VALUE": 310}
{"SMILES STRUCTURE": "CCOc1ccc(C[C@@H](NC(=O)c2ccccc2)C(=O)N[C@@H](Cc2ccsc2)C(=O)NCc2ccc(CN)cc2)cc1", "OBSERVED VALUE": 9}

[I] CCOc1ccc(C[C@@H](NC(=O)c2sccc2Cl)C(=O)N[C@@H](Cc2ccccc2)C(=O)NCc2ccc(CN)cc2)cc1
[II] CCOc1ccc(C[C@@H](NC(=O)c2ccccc2)C(=O)N[C@@H](Cc2cccc(F)c2)C(=O)NCc2ccc(CN)cc2)cc1
[III] CCCCCCNC(=O)N[C@H](Cc1ccc(OCC)cc1)C(=O)N[C@@H](Cc1ccccc1)C(=O)NCc1ccc(CN)cc1
*Q* Provide the items ranked by increasing IC50. In plain terms: list the labels in the order you were asked to.
*A* I, II, III

[1] CCOc1ccc(C[C@@H](NC(=O)C23CC4CC(CC(C4)C2)C3)C(=O)N[C@@H](Cc2ccccc2)C(=O)NCc2ccc(CN)cc2)cc1
[2] CCOc1ccc(C[C@@H](NC(=O)c2ccccc2)C(=O)N[C@@H](Cc2ccc(F)c(F)c2)C(=O)NCc2ccc(CN)cc2)cc1
*Q* Of 1 versus 2 , which is the one with smaller reported IC50? To answer, give the label that identifies your chosen option.
*A* 2

====

# TESTED SYSTEM: Human plasma kallikrein (Homo sapiens (Human), UniProt P03952)
# Sequence (P03952 391-638): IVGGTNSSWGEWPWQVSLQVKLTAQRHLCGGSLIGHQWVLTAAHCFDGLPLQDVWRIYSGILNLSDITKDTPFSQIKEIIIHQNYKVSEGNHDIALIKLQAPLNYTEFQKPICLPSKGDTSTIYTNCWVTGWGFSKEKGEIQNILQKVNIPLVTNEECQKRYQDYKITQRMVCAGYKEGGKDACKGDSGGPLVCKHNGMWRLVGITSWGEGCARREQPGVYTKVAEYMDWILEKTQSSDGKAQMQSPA
# Sequence (P03952 20-390 partner): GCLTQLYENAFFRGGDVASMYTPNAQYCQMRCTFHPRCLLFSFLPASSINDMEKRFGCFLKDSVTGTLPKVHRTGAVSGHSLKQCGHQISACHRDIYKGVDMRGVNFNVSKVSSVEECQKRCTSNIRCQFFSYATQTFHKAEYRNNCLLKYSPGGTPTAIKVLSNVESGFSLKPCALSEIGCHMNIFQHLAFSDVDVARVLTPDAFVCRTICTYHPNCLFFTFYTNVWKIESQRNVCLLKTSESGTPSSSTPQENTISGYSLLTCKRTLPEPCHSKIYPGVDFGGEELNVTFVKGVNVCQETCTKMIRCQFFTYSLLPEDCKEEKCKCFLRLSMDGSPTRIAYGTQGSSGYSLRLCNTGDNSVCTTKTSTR
# PROCEDURE DETAILS: Determination of the IC50 for plasma kallikrein
# Assay type: biochemical
# APPLIED CONDITIONS: fluorogenic substrate H-DPro-Phe-Arg-AFC, 37° C., read-out: IC50 (human PKal)
REPORTED METRIC: IC50 (µM)

{"SMILES STRUCTURE": "CCOc1ccc(C[C@@H](NC(=O)CC)C(=O)N[C@@H](Cc2ccccc2)C(=O)NCc2ccc(CN)c(Cl)c2)cc1", "IC50 / µM": 0.031}
{"SMILES STRUCTURE": "CCOc1ccc(C[C@@H](C(=O)N[C@@H](Cc2ccccc2)C(=O)NCc2ccc(CN)cc2)N(C)C(=O)CC)cc1", "IC50 / µM": 10}
{"SMILES STRUCTURE": "CCOc1ccc(C[C@@H](NC(=O)CC)C(=O)N[C@H](C(=O)NCc2ccc(CN)cc2)[C@@H](O)c2ccccc2)cc1", "IC50 / µM": 0.052}
{"SMILES STRUCTURE": "NCc1ccc(CNC(=O)[C@H](Cc2ccc(Cl)c(Cl)c2)NC(=O)[C@H](N)Cc2ccc(C(F)(F)F)cc2)cc1", "IC50 / µM": 8.8}
{"SMILES STRUCTURE": "C[C@@H](NC(=O)c1ccccc1)C(=O)N[C@@H](Cc1ccccc1)C(=O)NCc1ccc(CN)cc1", "IC50 / µM": 10}

[I] CCOc1ccc(C[C@H](C(=O)N[C@@H](Cc2ccccc2)C(=O)NCc2ccc(CN)cc2)N(C)C)cc1
[II] CCOc1ccc(C[C@@H](NC(=O)CC)C(=O)N[C@@H](Cc2ccccc2)C(=O)NCc2ccc(CN)c(F)c2)cc1
*Q* // pick larger IC50 from pair: I vs II To answer, give the label that identifies your chosen option.
*A* I
(I: 10 µM, II: 0.074 µM)

====

# TESTED SYSTEM: Human plasma kallikrein (Homo sapiens (Human), UniProt P03952)
# PROCEDURE DETAILS: Determination of the IC50 for plasma kallikrein
# Assay type: biochemical
# APPLIED CONDITIONS: fluorogenic substrate H-DPro-Phe-Arg-AFC, 37° C., read-out: IC50 (human PKal)
pIC50: −log10 of the molar value.
REPORTED METRIC: pIC50

[P] CCOc1ccc(C[C@@H](N)C(=O)N[C@H](C(=O)NCc2ccc(CN)cc2)[C@@H](O)c2ccccc2)cc1
[Q] CCOc1ccc(C[C@@H](NC(=O)CC)C(=O)N(CC)[C@H](Cc2ccccc2)C(=O)NCc2ccc(CN)cc2)cc1
[R] CCOc1ccc(C[C@@H](NC(=O)c2ccccc2)C(=O)N(C)[C@@H](Cc2ccccc2)C(=O)NCc2ccc(CN)cc2)cc1
[S] CCOc1ccc(C[C@@H](N)C(=O)N[C@@H](Cc2ccccc2)C(=O)NCc2ccc(CN)cc2)cc1
*Q* Sort the entries above by pIC50, largest first. In plain terms: list the labels in the order you were asked to.
*A* R, P, S, Q
(R: 7.33, P: 6.66, S: 6.34, Q: 5.47)

[1] CN[C@H](CC1CCCCC1)C(=O)N[C@@H](Cc1ccc(Cl)c(Cl)c1)C(=O)NCc1ccc(CN)c(F)c1
[2] CCCN(C)[C@H](CC1CCCCC1)C(=O)N[C@@H](Cc1ccccc1)C(=O)NCc1ccc(CN)cc1
*Q* // pick larger pIC50 from pair: 1 vs 2 To answer, give the label that identifies your chosen option.
*A* 2
(2: 6.10, 1: 5.89)

====

# PROCEDURE DETAILS: Determination of thermodynamic solubility in phosphate buffer
# Type: physicochemical
# APPLIED CONDITIONS: pH 7.4, aqueous buffer, thermodynamic from solid, ammonium phosphate buffer pH7.4, 290 mOsm, 37° C., nominal 1 mg/mL, read-out: Solubility in PO4 buffer
REPORTED METRIC: solubility at 1 h (µg/mL)

{"MOLECULE": "CCOc1ccc(C[C@@H](NC(=O)c2ccccc2)C(=O)N(C)[C@@H](Cc2ccccc2)C(=O)NCc2ccc(CN)cc2)cc1 [Example 38]", "OBSERVED VALUE": 14.6}

[1] CCOc1ccc(C[C@@H](NC(=O)c2sccc2NC(C)=O)C(=O)N[C@@H](Cc2ccccc2)C(=O)NCc2ccc(CN)cc2)cc1 [Example 179]
[2] CCOc1ccc(C[C@@H](NC(=O)c2ccccc2)C(=O)N[C@@H](Cc2ccc(Cl)c(Cl)c2)C(=O)NCc2ccc(CN)cc2)cc1 [Example 141]
*Q* // pick larger solubility at 1 h from pair: 1 vs 2 To answer, give the label that identifies your chosen option.
*A* 1
(1: 17.7 µg/mL, 2: 0.15 µg/mL)
